- System: Escherichia coli TOP10
- method: shrunken log2 fold change of peptide-encoding DNA abundance (4.5 h post-induction vs induction); higher = less antimicrobial activity (less host growth inhibition)
- measurement setup: time post-induction: 4.5 h; library: site-saturation at positions 5, 18, 19, 20
value kind: shrunken log2 fold change

>  <seq string>
RRIRKRPPRLPRPRPRPAPKPRP

>  <test target>
Escherichia coli TOP10

>  <obs value>
1.06

$$$$

[in] Lab request: please report shrunken log2 fold change under test system Escherichia coli TOP10 for "RRIRTRPPRLPRPRPRPCLGPRP"
[out] -0.534

====

- Test system: Escherichia coli TOP10
- method: shrunken log2 fold change of peptide-encoding DNA abundance (4.5 h post-induction vs induction); higher = less antimicrobial activity (less host growth inhibition)
- measurement setup: time post-induction: 4.5 h; library: site-saturation at positions 5, 18, 19, 20
value kind: shrunken log2 fold change
# print the numeric value only

// known answers, use as guide
>  <seq string>
RRIRLRPPRLPRPRPRPMMTPRP

>  <shrunken log2 fold change>
-0.042

$$$$
>  <seq string>
RRIRHRPPRLPRPRPRPVRSPRP

>  <shrunken log2 fold change>
0.172

$$$$
>  <seq string>
RRIRKRPPRLPRPRPRPPNKPRP

>  <shrunken log2 fold change>
0.289

$$$$
>  <seq string>
RRIRARPPRLPRPRPRPFFVPRP

>  <shrunken log2 fold change>
0.149

$$$$

[in] Given the sequence "RRIRVRPPRLPRPRPRPSILPRP" , what is its reported shrunken log2 fold change?
[out] -0.312

[in] Given the sequence "RRIRRRPPRLPRPRPRPTQRPRP" , what is its reported shrunken log2 fold change?
[out] 0.625

[in] Given the sequence "RRIRNRPPRLPRPRPRPLKTPRP" , what is its reported shrunken log2 fold change?
[out] -0.0746

[in] Given the sequence "RRIRARPPRLPRPRPRPIYIPRP" , what is its reported shrunken log2 fold change?
[out] 2.43

[in] Given the sequence "RRIRTRPPRLPRPRPRPNWEPRP" , what is its reported shrunken log2 fold change?
[out] 0.00854

[in] Given the sequence "RRIRIRPPRLPRPRPRPRIQPRP" , what is its reported shrunken log2 fold change?
[out] -0.275

[in] Given the sequence "RRIRARPPRLPRPRPRPPADPRP" , what is its reported shrunken log2 fold change?
[out] 1.42

[in] Given the sequence "RRIRRRPPRLPRPRPRPLITPRP" , what is its reported shrunken log2 fold change?
[out] -0.0767

[in] Given the sequence "RRIRVRPPRLPRPRPRPTYLPRP" , what is its reported shrunken log2 fold change?
[out] 0.00624

[in] Given the sequence "RRIRERPPRLPRPRPRPRVEPRP" , what is its reported shrunken log2 fold change?
[out] -0.182

[in] Given the sequence "RRIRKRPPRLPRPRPRPNYVPRP" , what is its reported shrunken log2 fold change?
[out] -0.087

====

- System: Escherichia coli TOP10
- method: shrunken log2 fold change of peptide-encoding DNA abundance (4.5 h post-induction vs induction); higher = less antimicrobial activity (less host growth inhibition)
- measurement setup: time post-induction: 4.5 h; library: site-saturation at positions 5, 18, 19, 20
Classes by shrunken log2 fold change: low = under -0.09, mid = from -0.09 up to 0.006, high = 0.006 and over

Previously resolved entries follow.
>  <seq string>
RRIRSRPPRLPRPRPRPFKWPRP

>  <test target>
Escherichia coli TOP10

>  <cat>
low

$$$$
>  <seq string>
RRIRDRPPRLPRPRPRPLVMPRP

>  <test target>
Escherichia coli TOP10

>  <cat>
high

$$$$
>  <seq string>
RRIRRRPPRLPRPRPRPVITPRP

>  <test target>
Escherichia coli TOP10;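 note: peptides expressed intracellularly from a pBAD plasmid library in pooled LB shake-flask culture, induced with 0.3% L-arabinose, DNA abundance read by NGS, three biological replicates, DESeq2 with apeglm shrinkage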

>  <cat>
low

$$$$

[in] Class for "RRIRIRPPRLPRPRPRPMGAPRP" ?
[out] low

[in] Class for "RRIRVRPPRLPRPRPRPYDRPRP" ?
[out] mid

[in] Class for "RRIRKRPPRLPRPRPRPDANPRP" ?
[out] mid

[in] Class for "RRIRCRPPRLPRPRPRPFCKPRP" ?
[out] mid

[in] Class for "RRIRNRPPRLPRPRPRPHDNPRP" ?
[out] low

[in] Class for "RRIRTRPPRLPRPRPRPIIDPRP" ?
[out] mid
